Test system: UACC-257
assay remarks: NCI tumour cell line growth inhibition, 48 h
Activity calls are given as the source filed them. Cut-off read from the data, not from the text of the source: active = GI50 up to about 1.1 µM and inactive = higher.
measurement type: GI50

[[record]]
compound = "COc1cc(S(=O)(=O)Nc2nc(-c3ccc(N4C(=O)/C(=C\\c5cccs5)N=C4c4ccccc4)cc3)cs2)ccc1Cl"
measurement_type = "GI50"
val = "71.3 µM (inactive)"

[[record]]
compound = "CC1(C)CC2C=C(C=O)C3(C=O)CC3(C)C2C1 (stereo not given)"
measurement_type = "GI50"
val = "2.38 µM (inactive)"


State recorded GI50 for all listed compounds.
1. O=C1C(=Cc2ccc(F)cc2)C(=O)c2ccccc21
2. COC(=O)[C@@H]1CCCCC[C@H]2C(CO)=C(C)C(=O)C12 (stereo not given in full)
3. CCCCCCCCCCCCCCCC(=O)NC1CCc2cc(O)c(O)c(O)c2-c2ccc(SC)c(=O)cc21 (stereo not given)
4. COC(=O)c1sc(=S)sc1SCc1ccc(CSc2sc(=S)sc2C(=O)OC)cc1

OUTPUT:
1. > 100 µM (inactive)
2. > 100 µM (inactive)
3. 11.1 µM (inactive)
4. > 100 µM (inactive)

State recorded GI50 for all listed compounds.
1. Cc1ccc(C(=O)C#Cc2cnc(O)nc2O)cc1
2. COc1ccc2c(c1)CCc1c-2n(CCN2CCCCC2)c2ccc(OC)cc12
3. COC(=O)C1=CON2C3CC4CC(C3)CC(C4)C12C (stereo not given)
4. S=C1c2cc(Cl)ccc2N=C(NC2CCCC2)C2CSCN12 (stereo not given)

OUTPUT:
14.2 µM (inactive)
> 100 µM (inactive)
> 100 µM (inactive)
> 91.6 µM (inactive)

----------
Tested on: COLO 205
assay remarks: NCI tumour cell line growth inhibition, 48 h
Activity calls are given as the source filed them. No stated cut-off is given here; in the data, active = GI50 up to about 1.1 µM and inactive = higher.
Outcome (select one): y for active, n for inactive

[[record]]
compound = "O=C1NC(=O)C(c2c[nH]c3ccccc23)=C1c1cn(C(c2ccccc2)(c2ccccc2)c2ccccc2)cn1"
study_target = "COLO 205"
assigned_category = "n"


INPUT: Which outcome was assigned to "COc1ccc2c(c1)/C(=C\c1c(Cl)[nH]c3cc(C)c(OC)cc13)C(=O)N2" in this test?
OUTPUT: y

INPUT: Which outcome was assigned to "Cn1cnc([N+](=O)[O-])c1Sc1nnnn1C" in this test?
OUTPUT: n

INPUT: Which outcome was assigned to "C=CCc1cc(OC)c(O)c(C(=O)/C=C/c2ccc(OC)c(OC)c2)c1" in this test?
OUTPUT: n

INPUT: Which outcome was assigned to "COc1ccc(NCC(=O)Nn2c(-c3ccccc3)nc3ccccc3c2=O)cc1" in this test?
OUTPUT: n

INPUT: Which outcome was assigned to "COP(=O)(OC)[C@@](O)(c1ccccc1)[C@@H](O)[C@H](O)c1ccccc1" in this test?
OUTPUT: n

INPUT: Which outcome was assigned to C=C1C(=O)O[C@@H]2C[C@@H](C)[C@@H]3[C@@H](OC4OC(COC(C)=O)C(O)C(O)C4O)CC(=O)[C@@]3(C)C[C@H]12 (some centres undefined) in this test?
OUTPUT: y

INPUT: Which outcome was assigned to O=c1c2ccccc2nc(-c2ccccc2Cl)n1NC1OC(CO)C(O)C(O)C1O (centres undefined) in this test?
OUTPUT: n

INPUT: Which outcome was assigned to CN1CC(C(=O)C2C(=O)c3ccccc3C2=O)C(=O)C(=O)C(C(=O)C2C(=O)c3ccccc3C2=O)C1 (centres undefined) in this test?
OUTPUT: n

----------
Task for the reader: assign each of the following molecules its reported GI50.
Tested on: RXF 393
assay remarks: NCI tumour cell line growth inhibition, 48 h
Calls of active or inactive are those of the source. No stated cut-off is given here; in the data, active = GI50 up to about 1.1 µM and inactive = higher.

[[record]]
molecule = "O=C(O)CSc1nnc(-c2ccccc2O)[nH]1"
measurement_type = "GI50"
val = "> 100 µM (inactive)"

[[record]]
molecule = "C#C[C@]1(O)CC[C@H]2[C@@H]3CCC4=C/C(=N/CCOC(=O)c5cccc6cc7ccccc7nc56)CC[C@@H]4[C@H]3CC[C@@]21C"
measurement_type = "GI50"
val = "4.06 µM (inactive)"

[[record]]
molecule = "COC1OC(=O)[C@H]2O[N+]([O-])=C(C)[C@@H]12 (some centres not stated)"
measurement_type = "GI50"
val = "> 100 µM (inactive)"

[[record]]
molecule = "Clc1cc(Cl)c2ns[s+]c2c1Cl"
measurement_type = "GI50"
val = "> 100 µM (inactive)"

[[record]]
molecule = "COc1ccc(NC(=O)CC/C(CC(=O)c2ccccc2Cl)=N\\Nc2nnc(C)n2N)cc1"
measurement_type = "GI50"
val = "> 100 µM (inactive)"


State recorded GI50 for all listed molecules.
1. CCOC(=O)C(NCc1cccc(C(F)(F)F)c1)(NC(=O)c1ccccc1)C(F)(F)F (configuration not stated)
2. CC(=O)c1ccc2c(c1)CC1(C2)Cc2ccc3c(c2C1=O)CCC3 (configuration not stated)
3. CN1C(=O)C(O)CC1c1cccc(C(F)(F)F)c1 (configuration not stated)
4. COC(CNC(=O)CNC(=O)c1ccc(C(F)(F)F)cc1)OC
5. CCn1c(-c2ccc(OC)cc2)nc2c1C(=O)c1ccccc1C2=O
6. O=C1NC(=O)C(c2c[nH]c3ccccc23)=C1c1cn(C(c2ccccc2)(c2ccccc2)c2ccccc2)cn1
7. CC1=NN(c2nc(N)nc(/C(C#N)=C/c3ccc([N+](=O)[O-])o3)n2)C(C)(C)C1

OUTPUT:
1: 9.08 µM (inactive); 2: 24.7 µM (inactive); 3: > 100 µM (inactive); 4: > 100 µM (inactive); 5: > 100 µM (inactive); 6: 4.52 µM (inactive); 7: 1.75 µM (inactive)

----------
Tested on: UACC-62
assay remarks: NCI tumour cell line growth inhibition, 48 h
Activity calls are given as the source filed them. No stated cut-off is given here; in the data, active = GI50 up to about 1.1 µM and inactive = higher.
Outcome (select one): active, inactive

[[record]]
compound = "CCCCC1=C(C(=O)N2CCOCC2)C2(OCCO2)C1=O"
assigned_category = "inactive"

[[record]]
compound = "O=C(/C=C/c1ccc2c(c1)OCO2)c1ccccc(=O)c1O"
assigned_category = "inactive"

[[record]]
compound = "CC(=O)O[C@@]12CO[C@@H]1C[C@@H](O)[C@@]1(C)C(=O)[C@H](O)C3=C(C)[C@@H](OC(=O)[C@H](O)[C@@H](NC(=O)c4ccccc4)c4ccccc4)C[C@@](O)([C@@H](OC(=O)c4ccccc4)C12)C3(C)C (some centres undefined)"
assigned_category = "active"


INPUT: Which outcome was assigned to O=C(CC1S/C(=N\c2ccccc2Cl)NC1=O)Nc1ccc(Cl)cc1 (centres undefined) in this test?
OUTPUT: inactive

INPUT: Which outcome was assigned to "C/C(CN1C(=O)c2ccccc2C1=O)=N\NS(=O)(=O)c1cccc(C(=O)O)c1" in this test?
OUTPUT: inactive

----------
Test system: MDA-N
assay remarks: NCI tumour cell line growth inhibition, 48 h
Calls of active or inactive are those of the source. Cut-off read from the data, not from the text of the source: active = GI50 up to about 1.1 µM and inactive = higher. Residues, ends and D or L forms follow the SMILES beside them.
Outcome (select one): YES = active, NO = inactive

[[record]]
compound = "CCCCCCCCCCCCCCCCCCOCC(COCCOCC[N+]1(CCCCCC(=O)[O-])CCCC1)Oc1ncccn1 (stereo unspecified)"
assigned_category = "NO"

[[record]]
compound = "CC(=O)NC(CO)C(=O)NC(Cc1ccc(O)cc1)C(=O)NCC(N)=O (stereo not drawn) (Ac-Ser-Tyr-Gly-NH2; configuration not given here)"
assigned_category = "NO"

[[record]]
compound = "O=[N+]([O-])c1ccc(OP(=O)(O)OCC2OC(CP(=O)(O)O)C(O)C2O)cc1 (stereo unspecified)"
assigned_category = "NO"

[[record]]
compound = "COC(=O)CCC1=NCC(C)(C)O1"
assigned_category = "NO"

[[record]]
compound = "C=C1CC(C)(COc2ccc3c(C)cc(=O)oc3c2)OC1=O (stereo unspecified)"
assigned_category = "YES"

[[record]]
compound = "Oc1cc(-c2cccc(OCc3ccccc3)c2)nc2cc3c(cc12)OCO3"
assigned_category = "YES"

[[record]]
compound = "CCN(CC)CCN1CCN=c2c3cc(OC)ccc3n3cnc4ccc1c2c43"
assigned_category = "YES"

[[record]]
compound = "CSC1=N/C(=C\\c2cccs2)C(=O)N1CN1CCOCC1"
assigned_category = "NO"


INPUT: Which outcome was assigned to "O=c1c2ccccc2nc(-c2ccccc2)n1O" in this test?
OUTPUT: NO

INPUT: Which outcome was assigned to "COc1cc(NCc2ccc3n2-c2ccccc2OC3)cc(OC)c1OC" in this test?
OUTPUT: NO

INPUT: Which outcome was assigned to S=C1c2cc(Cl)ccc2N=C(NC2CCCC2)C2CSCN12 (stereo unspecified) in this test?
OUTPUT: NO

INPUT: Which outcome was assigned to "CCOC(=O)c1sc(N/N=C2\NC(=O)/C(=C/c3ccc([N+](=O)[O-])cc3)S2)nc1C" in this test?
OUTPUT: NO

INPUT: Which outcome was assigned to "Cc1cc(-c2nc3ccc(F)cc3s2)ccc1N" in this test?
OUTPUT: NO

INPUT: Which outcome was assigned to "CCCCOC(=O)NC(Nc1ccc(S(=O)(=O)Nc2ncccn2)cc1)(C(F)(F)F)C(F)(F)F" in this test?
OUTPUT: NO

INPUT: Which outcome was assigned to O=C(O)C(CCc1ccccc1)N1C(=O)c2ccccc2C1=O (stereo unspecified) in this test?
OUTPUT: NO

INPUT: Which outcome was assigned to O=C(O)c1cccc(CC(Br)C(=O)O)c1 (stereo unspecified) in this test?
OUTPUT: NO

INPUT: Which outcome was assigned to O=CC(O)C(O)C(O)C1CNC(=S)O1 (stereo unspecified) in this test?
OUTPUT: NO

INPUT: Which outcome was assigned to O=C(/C=C/c1ccc(O)c(O)c1)NC(COC(=O)/C=C/c1ccc(O)c(O)c1)C(=O)O (stereo unspecified) in this test?
OUTPUT: NO

INPUT: Which outcome was assigned to CC(=O)NC1C(OCc2ccccc2)OC(CO)C(O)C1OC(C)C(=O)NC(C(=O)NC(CCC(=O)NCCCC(=O)Nc1ccc2c(c1)CN1C(=O)c3ccccc3C1=N2)C(N)=O)C(C)C (stereo unspecified) in this test?
OUTPUT: NO

INPUT: Which outcome was assigned to CC1C(O)Oc2cc3c(cc2C1c1ccccc1O)OCO3 (stereo unspecified) in this test?
OUTPUT: NO

INPUT: Which outcome was assigned to "Nc1ncnc2c1ncn2[C@@H]1C[C@H](NO)[C@@H](O)[C@H]1O" in this test?
OUTPUT: NO

Reference source: ChEMBL document CHEMBL1201862
